# EC50 annotations
system: NS5A chimeric genotype 2a JFH-1 replicon with genotype 2b MD2b-1 strain NS5A gene (M31 present); test: microbe, parasite or virus in culture; assay type: cell-based, HCV; conditions: Hepatitis C virus, read-out: 2b (t) (nM)
Respond numerically; units are nM and should not be typed.

Input line: What value of measured EC50 is listed for `COC(=O)N[C@H](C(=O)N1[C@@H](C)CC[C@H]1c1ncc(-c2ccc3c(c2)COc2cc4c(ccc5nc([C@@H]6CC[C@H](C)N6C(=O)[C@@H](NC(=O)OC)[C@@H](C)OC)[nH]c54)cc2-3)[nH]1)[C@@H](C)OC` ?
Output line: 0.019

Input line: What value of measured EC50 is listed for `COC(=O)N[C@H](C(=O)N1CCC[C@H]1c1ncc(-c2ccc3c(c2)COc2cc4c(cc2-3)CCc2[nH]c([C@@H]3CCCN3C(=O)[C@@H](NC(=O)OC)C(C)C)nc2-4)[nH]1)C(C)C` ?
Output line: 0.198

Input line: What value of measured EC50 is listed for `CC[C@H](C)[C@H](NC(=O)OC)C(=O)N1C[C@@H](COC)C[C@H]1c1nc2ccc3cc4c(cc3c2[nH]1)OCc1cc(-c2cnc([C@@H]3CC[C@H](C)N3C(=O)[C@@H](NC(=O)OC)[C@@H](C)CC)[nH]2)ccc1-4` ?
Output line: 0.094

Input line: What value of measured EC50 is listed for `CC[C@H](C)[C@H](NC(=O)OC)C(=O)N1[C@@H](C)CC[C@H]1c1ncc(-c2ccc3c(c2)COc2cc4c(ccc5nc([C@@H]6C[C@H](COC)CN6C(=O)[C@H](NC(=O)OC)c6ccccc6)[nH]c54)cc2-3)[nH]1` ?
Output line: 0.008
